The origin of these recorded values is the supplement of paper PMC10567573.

B1: TRIM55 (parent)
chain: YLPTRGGTTMASGGRFRCPSCRHE

variants of: B1; assay: protein stability index of a GFP-peptide fusion (GPS, HEK-293T) (PSI 1-6); higher = more stable; details: c terminus: a fixed tail appended;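 further: lentivirally expressed fusions sorted by FACS into six bins by GFP to DsRed ratio, PSI derived from sequencing read proportions per bin multiplied by bin number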
Would you mind telling me the reported protein stability index of each entry?
Give bare numbers.

Would you be so kind as to report protein stability index for each listed record?
1. YLPTWGGTTMASGGRFRCPSCRHE [R5W]
2. YRPTRGGTTMASGGRFRCPSCRHE [L2R]
3. YLPTRGGTTMASGNRFRCPSCRHE [G14N]
4. YLPTRGGTTKASGGRFRCPSCRHE [M10K]
5. YLPTRGGTTMASGGRFRCPSARHE [C21A]
6. YLPTRSGTTMASGGRFRCPSCRHE [G6S]
7. YLPTRGGTTMASNGRFRCPSCRHE [G13N]

1. 3.96
2. 1.77
3. 2.42
4. 1.11
5. 3.98
6. 1.97
7. 1.89
